Sourced from PubChem BioAssay AID686978

- procedureSummary: qHTS for Inhibitors of human tyrosyl-DNA phosphodiesterase 1 (TDP1): qHTS in cells in absence of CPT; note: nearly all actives have a fitted effect of over 55% in size
- conditionNotes: DT40 Tdp1-/- hTDP1 cells, no CPT, ATP luminescence, 48 h
Hit rate of the full screen: of about 420,000 compounds, about 64,000 (15%) were called active. Not shown: some 27% with an inconclusive outcome. Calls come from the whole dose curve; as a rule, active = well fitted inhibition curve with a large enough effect; inconclusive = small, poorly fitted or top-dose-only effect; inactive = flat fitted curve, though single readings scatter. These entries were drawn from the full list.
Pick from active, inactive when you respond.

Prompt: Outcome? `O=C(CN1CCC(O)(c2ccccc2)CC1)Nc1ccc2c(c1)OCCO2`
Response: inactive

Prompt: Outcome? `COC(=O)c1nc(NC(=O)c2ccc(F)cc2)n[nH]1`
Response: inactive

Prompt: Outcome? COc1cc(C2/C(=C(\O)c3ccc4c(c3)CC(C)O4)C(=O)C(=O)N2c2nnc(C)s2)cc(OC)c1OC (stereo not given)
Response: inactive

Prompt: Outcome? `O=C(N/N=C/c1cccnc1)c1ccc(NC(=O)c2ccc(F)cc2)cc1`
Response: inactive

Prompt: Outcome? O=C(O)C1OC(C(=O)O)C2C1C(F)(F)C2(F)F (stereo not given)
Response: inactive

Prompt: Outcome? `CCS(=O)(=O)c1ccc(C(=O)NC)c(Cl)c1Cl`
Response: inactive

Prompt: Outcome? CCn1c(C(C)NC(=O)c2ccc(C)cc2)n[nH]c1=S (stereo not given)
Response: inactive

Prompt: Outcome? `O=C(Nc1ccc(S(=O)(=O)N2CCOCC2)cc1)c1ccc2ncsc2c1`
Response: inactive

Prompt: Outcome? `CCOC(=O)CSc1nncc2ccc(OC)c(OC)c12`
Response: inactive

Prompt: Outcome? CCC(C)N(C(=O)CSc1nnnn1-c1ccccc1OC)C1CCS(=O)(=O)C1 (stereo not given)
Response: inactive

Prompt: Outcome? `CCOc1ccc(-c2cn(S(=O)(=O)c3cccc4nsnc34)nc2N)cc1`
Response: inactive

Prompt: Outcome? O=C(NC1CCCC1)C(c1ccco1)N(C(=O)c1csnn1)c1ccccc1 (stereo not given)
Response: inactive

Prompt: Outcome? O=C(CCc1nnc2ccc(NCc3ccccc3Cl)nn12)NCC1CCN(C2CCCC2)C1 (stereo not given)
Response: inactive

Prompt: Outcome? `CS(=O)(=O)N1CCc2cc(C(=O)Nc3ccccc3Br)ccc21`
Response: inactive

Prompt: Outcome? `COc1ccc(S(=O)(=O)n2nc(C)c(S(=O)(=O)N3CCOCC3)c2C)cc1`
Response: inactive

Prompt: Outcome? COc1cccc(CN2CCN(Cc3ccc4cccc(F)c4n3)CC2CCO)c1 (stereo not given)
Response: inactive

Prompt: Outcome? `CCOC(=O)c1cccc(NC(=O)CCOc2ccccc2)c1`
Response: inactive

Prompt: Outcome? `CNC(=O)c1ccsc1NC(=O)c1ccc(S(=O)(=O)N2CCc3ccccc32)cc1`
Response: active

Prompt: Outcome? `Cc1ccc(OCC(=O)OCc2cc(=O)n3nc(C4CC4)sc3n2)cc1C`
Response: inactive

Prompt: Outcome? Cc1cccc(C(=O)OCC(=O)NC(C)C2CC3CCC2C3)c1O (stereo not given)
Response: active

Prompt: Outcome? `COC(=O)C[C@@H]1C=C[C@@H](NC(=O)c2ccc3c(c2)OCO3)[C@@H](CO)O1`
Response: inactive

Prompt: Outcome? `CC1CCN(C(=S)c2cccc(O)c2)CC1`
Response: inactive

Prompt: Outcome? `CC(=O)Nc1c2c(nn1-c1cccc(C)c1)CSC2`
Response: inactive

Prompt: Outcome? CCOC(=O)CCC(=O)OCC(=O)NC(C)C1CC2CCC1C2 (stereo not given)
Response: inactive

Prompt: Outcome? `CCN(CC)C(=O)CSc1nnc(-c2ccc(S(=O)(=O)NCc3ccccc3Cl)cc2)o1`
Response: inactive

Prompt: Outcome? `CCCC(=O)Nc1ccc2c(c1)nc(CCNC(=O)c1ccco1)n2C`
Response: inactive

Prompt: Outcome? Cc1c(NC(=O)C(C)OC(=O)c2ccccc2O)c(=O)n(-c2ccccc2)n1C (stereo not given)
Response: inactive

Prompt: Outcome? `N#CNC1=NCN(CCc2ccccc2)CN1`
Response: inactive

Prompt: Outcome? `Cc1nc(CN2CCN(C(=O)CCc3nnc(Cc4c[nH]c5ccccc45)o3)CC2)cs1`
Response: inactive

Prompt: Outcome? `CCC(CC)C(=O)Nc1c2c(nn1-c1ccc(C)cc1)CS(=O)(=O)C2`
Response: inactive

Prompt: Outcome? `O=C(COc1coc(CN2CCN(c3ccccc3F)CC2)cc1=O)N1CCc2ccccc21`
Response: inactive

Prompt: Outcome? OCCC1CN(Cc2ccc(Oc3ncccn3)cc2)CCN1CCc1ccccc1 (stereo not given)
Response: inactive

Prompt: Outcome? `CCCc1nnc(NC(=O)c2cc(OC)cc(OC)c2)s1`
Response: inactive

Prompt: Outcome? `COc1ccccc1-n1nnnc1SCC(=O)NC(=O)Cc1ccccc1`
Response: inactive

Prompt: Outcome? `C[C@@H]1CC[C@]2(O[C@@H](CCO)C[C@H](O)[C@H]2O)O1`
Response: inactive

Prompt: Outcome? CC(NC(=O)c1ccco1)c1ccc2c(c1)OCO2 (stereo not given)
Response: inactive

Prompt: Outcome? `CC(C)N(C)C(=O)CCc1nnc(CCc2c[nH]c3ccccc23)o1`
Response: inactive

Prompt: Outcome? OCCC1CN(Cc2cccc(O)c2)CCN1CCc1ccccc1 (stereo not given)
Response: inactive

Prompt: Outcome? Cc1nc(C(F)(F)F)ccc1C(=O)N1CCC1(C)C(=O)NS(=O)(=O)c1ccccc1 (stereo not given)
Response: inactive

Prompt: Outcome? `CN(CCC#N)c1ccc(C=O)cc1`
Response: inactive

Prompt: Outcome? `Cc1cc(NC(=O)CN2CCC(O)(c3cccc(F)c3)CC2)no1`
Response: inactive

Prompt: Outcome? CCOc1ccc(CN2CCN(Cc3ccc4cc(F)ccc4n3)CC2CCO)cc1 (stereo not given)
Response: active

Prompt: Outcome? OC(C#CCN1CCOCC1)(c1ccccc1)C1CCCCC1 (stereo not given)
Response: inactive

Prompt: Outcome? CC(=O)Nc1ccc(NC(=O)CCN2C(=O)C3CC=CCC3C2=O)cc1 (stereo not given)
Response: inactive

Prompt: Outcome? `Fc1ccc(-c2ccc(-c3nn4c(-c5ccco5)nnc4s3)o2)cc1`
Response: inactive
